Give measured glycan array binding signal (z-score) for each item. Keep answers brief.
target: Gal(a1-3)[Gal(a1-4)]Gal(b1-4)GlcNAc; test: glycan array binding signal (z-score within array); higher = stronger binding; conditions: glycan notation: IUPAC condensed, linker removed
The sample as a whole holds a higher share of the strongest signals than the screen did.
Numbers only.

AT5G01260(PC)(40) (Arabidopsis thaliana), Q9LFB0 (protein) MIGIGRTLTSSSPSKIILEDLPPGIYRYGTEIFTSVPRKTFHHIKFLRLDSAQSSRILKPVPLRSSSIKDSQVNVEDEEIEASNKTVRVRFQLRKECVFGEHFFIVGDDPVFGGLWDPETALPLNWSDGNVWTVDLDLPVGRLVEFKLLLKAQTGEILWQPGPNRALETWETNKTIRICEDWDNADLQMMIEEDFVPYTNISSIGSEDEDEVLGSVQQNSSVVAVENAGYVSDESAQNSSFSIQSEKTMEPSNGALTAREVIKEAMFTEEESPVLVPGLIPLSDLDNEQVEVINEGKAETFPEVDKKQEPKAERNKKAKVKAISLFEKSEQEAVKSVEQRQYNAVEEEQQRLETEPLGTPDVLFENDIQWGRRTLYKLLSNFRLF    9.44
SEX4 (Arabidopsis thaliana), Q944A8 (protein) TQAMGAVLTYRHELGMNYNFIRPDLIVGSCLQTPEDVDKLRKIGVKTIFCLQQDPDLEYFGVDISSIQAYAKKYSDIQHIRCEIRDFDAFDLRMRLPAVVGTLYKAVKRNGGVTYVHCTAGMGRAPAVALTYMFWVQGYKLMEAHKLLMSKRSCFPKLDAIRNATIDILTGLKRKTVTLTLKDKGFSRVEISGLDIGWGQRIPLTLGKGTGFWILKRELPEGQFEYKYIIDGEWTHNEAEPFIGPNKDGHTNNYAKVVDDPTSVDGTTRERLSSEDPELLEEERSKLIQFLETCSEAEV    -0.539

// each binder listed below needs its glycan array binding signal (z-score)
1. Ovorubin (Pomacea canaliculata), J7I2T6 (protein) MFVATSLLLAIATLVVRASPHNYLIMDIEPPKSVSERDILNLLSPLQVKHSFRVTGSTRLLIVIRLDAQSYEKLDEITVPGKVEVIPAVNMADTMERCGVSWPRVELTDDNVTLFESESTLTDVTKEQLKAMLIGYGEHMSGLLQAHRFEYYQAAGATPHRHFVFVNSVPDEIEVFGREGVDIWGGPGEFVVKPQYVTRI
2. Gal 3 (Homo sapiens), P17931 (protein) MADNFSLHDALSGSGNPNPQGWPGAWGNQPAGAGGYPGASYPGAYPGQAPPGAYPGQAPPGAYHGAPGAYPGAPAPGVYPGPPSGPGAYPSSGQPSAPGAYPATGPYGAPAGPLIVPYNLPLPGGVVPRMLITILGTVKPNANILDFQRGNDVAFHFNPRFNENNRRVIVCNTKLDNNWGREERQSVFPFESGKPFKIQVLVEPDHFKVAVNDAHLLQYNHRVKKLNEISKLGISGDIDLTSASYTMI
3. AT3G09350(27) (Arabidopsis thaliana), Q84J81 (protein) MAKDGPNWDGLLKWSLSHADGTRPTRQLSEEDRKWFMEAMQSQTVDVVKRMKEITLVMQTPEQVLVEHGVTPEDIQDLLDELQEHVESIDMANDLHSIGGLVPLLSFLKNSHANIRAKAADVVSTIVQNNPRSQELVMETNALESLLSNFTSDTDIHARTQALGAISSLIRHNKPGVTAFKLANGYAGLRDALASDSVRFQRKALNLLQYLLQEDDSDRSIATGLGFPRVMMHLASSDDAEIREAALRGLLELSREKNDGSSSIDKSDEKLRQLLEERIKGITLMSQEDLETVKEERQLVDLLWSICYNEPSSLREKGLVVLPGEDALPPDVASKLFEPPLRASAANRNATEKKDEPMKLLGP
4. Clec18A (Homo sapiens) (protein) PFHTCDLRIDGDCFMVSSEADTYYRARMKCQRKGGVLAQIKRQKVQDILAFYLGRLETTNEVIDSDFETRNFWIGLTYKTAKDSFRWATGEHQAFTSFAFGQPDNHGFGNCVELQASAAFNWNDQRCKTRNRYICQ

Output:
1. 7.96
2. -0.388
3. 8.94
4. 2.29

Give glycan array binding signal (z-score) for all binders that follow.
1. MPA (Maclura pomifera) (protein) GVTFDDGAYTGIREINFEYNSETAIGGLRVTYDLNGMPFVAEDHKSFITGFKPVKISLEFPSEYIVEVSGYVGKVEGYTVIRSLTFKTNKQTYGPYGVTNGTPFSLPIENGLIVGFKGSIGYWLDYFSIYLSLNGPNGKSQSIIVGPWGDRVTN
2. SIGNR8 (Mus musculus) (protein) MAGEPEFHQSKNHEEEVTSGEQGFAEHDPEGLICSSKSLQGHLTQVPWLLLLLISLGLFLLMLATLVQVSRIRAYSQGQTQDQQGSSSLDKVAVPREQTHSGLEQIQQIQQQLTQFNASLAGLCRPCPWDWELFQGSCYLFSRTLGSWETSASSCEDLGAHLVIVNSVSEQRFMKYWNVRKNQRSWIGLSDHIHEGSWQWVDGSALKFSFWKEGEPNNDGDEDCVELFMDDWNDNKCTEQNFWVCEQPSAPCPHH

Output:
1. -0.16
2. 4.59

The value of glycan array binding signal (z-score) measured for the binder SLLPI (Homo sapiens), Q8IXA5 (protein) MVSALRGAPLIRVHSSPVSSPSVSGPRRLVSCLSSQSSALSQSGGGSTSAAGIEARSRALRRRWCPAGIMLLALVCLLSCLLPSSEAKLYGRCELARVLHDFGLDGYRGYSLADWVCLAYFTSGFNAAALDYEADGSTNNGIFQINSRRWCSNLTPNVPNVCRMYCSDLLNPNLKDTVICAMKITQEPQGLGYWEAWRHHCQGKDLTEWVDGCDF turned out to be 0.947
